biological target: Focal adhesion kinase 1 (Homo sapiens) (UniProt Q05397); experiment: PTK2 protein binding on printed compound slides – biochemical, small-molecule microarray, 635/667 nm fluorescence, BSA, DTT, primary screen (AID 1130); conditions: 635 nm fluorescence, higher = more signal;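 also: composite of spot emission at 667 nm and signal to noise over triplicate slides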
Sequence (Q05397 whole entry, looked up): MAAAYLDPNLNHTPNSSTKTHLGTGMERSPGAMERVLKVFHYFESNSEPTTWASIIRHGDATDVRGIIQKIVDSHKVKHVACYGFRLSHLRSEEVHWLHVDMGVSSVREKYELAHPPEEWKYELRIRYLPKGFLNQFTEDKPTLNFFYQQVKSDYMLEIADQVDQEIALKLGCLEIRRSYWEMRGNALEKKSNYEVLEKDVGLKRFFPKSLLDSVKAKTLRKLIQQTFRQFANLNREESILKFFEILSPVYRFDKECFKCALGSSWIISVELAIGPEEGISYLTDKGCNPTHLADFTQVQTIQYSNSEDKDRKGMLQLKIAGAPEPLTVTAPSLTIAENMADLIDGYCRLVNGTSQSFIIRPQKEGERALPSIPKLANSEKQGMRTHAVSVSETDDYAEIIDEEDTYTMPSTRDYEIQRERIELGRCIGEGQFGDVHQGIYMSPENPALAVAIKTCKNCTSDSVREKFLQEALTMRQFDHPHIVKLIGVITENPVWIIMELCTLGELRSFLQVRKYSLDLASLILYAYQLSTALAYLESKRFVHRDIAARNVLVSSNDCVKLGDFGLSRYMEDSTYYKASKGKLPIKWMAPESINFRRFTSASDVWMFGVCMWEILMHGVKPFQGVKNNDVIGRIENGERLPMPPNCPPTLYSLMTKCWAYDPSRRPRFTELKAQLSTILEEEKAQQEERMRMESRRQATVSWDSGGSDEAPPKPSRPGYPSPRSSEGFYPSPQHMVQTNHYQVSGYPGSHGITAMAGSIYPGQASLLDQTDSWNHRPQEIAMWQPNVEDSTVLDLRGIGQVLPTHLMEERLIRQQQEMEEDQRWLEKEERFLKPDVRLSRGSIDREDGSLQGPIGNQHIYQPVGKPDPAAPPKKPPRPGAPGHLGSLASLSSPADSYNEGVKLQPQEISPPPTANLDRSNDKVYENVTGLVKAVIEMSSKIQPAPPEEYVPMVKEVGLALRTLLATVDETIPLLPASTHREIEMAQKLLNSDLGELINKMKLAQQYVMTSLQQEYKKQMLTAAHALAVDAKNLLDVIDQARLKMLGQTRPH
Entries annotated with measured composite z-score
When you answer, write just the number.

These solved cases illustrate the format of a correct answer.
[
  {
    "compound": "COc1cc2c(cc1O)C=[N+](C)CC2",
    "reported_endpoint": "composite z-score",
    "reading": -0.0048
  },
  {
    "compound": "CCCC[C@@H]1C[C@H]1[C@@H](NP(=O)(c1ccccc1)c1ccccc1)c1ccc(Cl)cc1",
    "reported_endpoint": "composite z-score",
    "reading": 0.343
  }
]

Query string: Field request: composite z-score | item: CCCc1cc2c(n1Cc1ccc(C)cc1)C(C)C1CN(C(=O)c3ccccc3)C(C)(C(=O)OC)C21 (stereo unspecified)
Result string: 1.29

Query string: Please report the recorded composite z-score for COc1cc2c(cc1O)C(C)N(C)CC2 (stereo unspecified) .
Result string: -0.45

Query string: Please give the measured composite z-score for this compound: `CN1CCc2nc(CO)c(CO)cc2C1`
Result string: 0.11

Query string: Consider the compound COC(=O)C1(C)C=C2C(=C(C)C(=O)C2C)CN1 (stereo unspecified) and give its measured composite z-score.
Result string: 0.885

====

Recorded composite z-score, one value per entry.
assay: binders from COS7 lysate, DM2A8 probe, primary screen, torsin A project, cell lysate, small-molecule microarray, fluorescence 635/667 (AID 1065); conditions: higher = more signal; small-molecule microarray, COS7 cell lysate, probe DM2A8, fluorescence, COS7 lysate expressing mutant human TOR1A unless noted
Write the value as a bare number.

Please review the entries below; each comes with its answer.
[
  {
    "molecule": "CN1CCc2nc(CO)c(CO)cc2C1",
    "composite z-score": 0.267
  },
  {
    "molecule": "COc1cc2c(cc1O)C(C)N(C)CC2 (stereo not given)",
    "composite z-score": -0.144
  },
  {
    "molecule": "c1ccc(-c2cc3c(nc2-c2ccccc2)CCNC3)cc1",
    "composite z-score": -0.112
  }
]

Query string: Data request, read-out composite z-score, for `COC(=O)[C@@]1(Cc2ccccc2)[C@H]2c3cc(C(=O)N(C)C)[nH]c3C[C@H]2CN1C(=O)c1ccccc1`
Result string: -0.365

Query string: Consider the molecule shown here: CN1CCC(c2ccc(CO)cc2)=CC1C1CC1 (stereo not given) What is its recorded composite z-score?
Result string: -0.0038

====

test: probe aNog binding to arrayed compounds – biochemical, biotinylated probe, 635/667 nm fluorescence, primary screen (AID 1115); details: higher = more signal; small-molecule microarray, probe aNog, fluorescence unless noted;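 also: probe is biotinylated aNog protein used at 0.15 µg/mL for 1 h at 4 C; z-score combines 667 nm fluorescence of each spot with its signal to noise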
Classification by composite z-score | ranges: lo: < -0.2; med: ≥ -0.2 and < 0.4; hi: ≥ 0.4

Field: example entries. Status: answers known.
[
  {
    "compound": "c1ccc(-c2cc3c(nc2-c2ccccc2)CCNC3)cc1",
    "class_assignment": "med"
  },
  {
    "compound": "COC(=O)NCC=Cc1nc(CCC=CC(=O)O[C@H]2CC3CC(=O)O[C@@H](C=CCC(C)C)C[C@@H]4CC[C@H](C)[C@@H](C[C@@H](OC)C[C@H](C2)O3)O4)co1",
    "class_assignment": "med"
  },
  {
    "compound": "C=C(CC1(C(C)NP(=O)(c2ccccc2)c2ccccc2)CC1)c1ccccc1 (stereo unspecified)",
    "class_assignment": "hi"
  },
  {
    "compound": "COC(=O)[C@H]1C(=O)c2ccccc2O[C@@](C(=O)OC)(c2ccccc2)[C@@H]1c1ccccc1",
    "class_assignment": "lo"
  },
  {
    "compound": "COc1cc2c(cc1O)C=[N+](C)CC2",
    "class_assignment": "lo"
  },
  {
    "compound": "CN1CCc2nc(CO)c(CO)cc2C1",
    "class_assignment": "med"
  },
  {
    "compound": "CCCC[C@@H]1C[C@H]1[C@@H](NP(=O)(c1ccccc1)c1ccccc1)c1ccc(Cl)cc1",
    "class_assignment": "hi"
  },
  {
    "compound": "COC(=O)[C@H]1[C@@H](O)[C@@]2(O)c3c(OC)cc(OC)cc3O[C@@]2(c2ccc(OC)cc2)[C@@H]1c1ccccc1",
    "class_assignment": "med"
  },
  {
    "compound": "CCCC=C(CCC)[C@@H](NP(=O)(c1ccccc1)c1ccccc1)c1ccccc1",
    "class_assignment": "lo"
  },
  {
    "compound": "COC(=O)[C@@]1(Cc2ccccc2)[C@H]2c3cc(C(=O)N(C)C)n(C)c3C[C@H]2CN1C(=O)c1ccccc1",
    "class_assignment": "hi"
  }
]

Query string: Exam item: assign `CCOC(=O)[C@H]1CC=C2C(=O)Oc3ccccc3[C@@H]21` to the correct category.
Result string: med

Query string: Kindly state the category for this compound: OCc1ccc(C2=CC(c3cccs3)N(Cc3cccc(OC(F)(F)F)c3)CC2)cc1 (stereo unspecified)
Result string: lo

Query string: Class? Entry: `CCOC(=O)[C@H]1CC=C2C(=O)Oc3ccc(Br)cc3[C@@H]21`
Result string: hi
